Data origin, for the record: patent US20190062453A1

Biological target: T1, human DR5 ECD-Avi-his (human, UniProt O14763 56-207)
T1 construct: also called recombinant human DR5 (monomeric His-Avi fusion protein); monomeric human DR5
Test: SPR, rabbit IgG captured by anti rabbit, monomeric DR5 injected
PARAMETER: pKd
Recall that pKd is obtained by taking minus log10 of the concentration measured in molar.

Which pKd is listed for DR5TAA-0013 (antibody, V domains shown, rabbit IgG; also called 298; clone 298) VH: QSLEESGGRLVTPGTPLTLTCTASGFTISSYHMSWVRQAPGKGLEWIGYIYAGSASTWYASWVKGRFTISKTSTTVDLKMTSLTTEDTATYFCARDAGSSYWEFNLWGPGTLVTVSS VL: LVMTQTPSSTSEPVGGTVTIKCQASQSIGSSLSWYQQTPGQPPKLLIYTASSLASSVPKRFSGSRSGTQFTLTISGVQCADAATYYCLGIDDVRRDDGFAFGGGTEVVVKG ?
8.04

Then this binder: DR5TAA-0011 (antibody, V domains shown, also called 174; clone 174) VH: QSVEESGGRLVTPGTPLTLTCTVSGFSISRYAMIWVRQAPGEGLEYIGFITSDSSAYYASWAKGRFTISKTSTTVDLKMTSPTTEDTATYFCARYTYSDGTDLWGPGTLVTVSS VL: DIVMTQTPASVSEPVGGTVTIKCQASQSISTYLSWYQQKPGQPPKRLIYKASTLASGVPSRFKGSGSGTDFTLTIRDLECADAATYYCQPNSGIATYGAAFGGGTEVVVKG
8.37

Note, next up: DR5TAA-0019 (antibody, V domains shown, rabbit IgG) VH: QSVEESGGRLVTPGTPLTLTCTVSGFSLSNYAMSWVRQAPGKGLEWIGIISSSGTTYYASWAKGRFTISKTSTTVDLKVTSPTTEDTATYFCARETYYGYSYAAGLWGPGTLVTVSS VL: ALVMTQTPSSVSAAVGGTVTINCQASQNIYSNLAWFQQKPGQPPKLLIYETSKLASGVPSRFSGSGSGTEFTLTISDLECDDAATYYCQSSWHSISTDCAFGGGTEVVVKG
9.17
